Data provenance is patent US7217865B2.

# TARGET OR SYSTEM: Agrobacterium tumefaciens anthranilate synthase (AgroAS), wild type, SEQ ID NO:4 (Agrobacterium fabrum, UniProt A9CI26)
# METHOD: Anthranilate synthase enzyme assay and kinetic analysis, wild type
# Type: biochemical
ENDPOINT: IC50 (µM)
# number only, unit µM dropped from output

Entry N[C@@H](Cc1c[nH]c2ccccc12)C(=O)O [L-tryptophan] ; IC50 = 5

---

# TARGET OR SYSTEM: Agrobacterium tumefaciens anthranilate synthase variant N52F, SEQ ID NO:62 (Agrobacterium fabrum, UniProt A9CI26, N52F)
# METHOD: Anthranilate synthase enzyme assay and kinetic analysis, N52F mutant
ENDPOINT: pIC50
// scale note: pIC50 = -log10(conc_M); give the bare number

Entry N[C@@H](Cc1c[nH]c2ccccc12)C(=O)O ; pIC50 = 4.39

---

# TARGET OR SYSTEM: Agrobacterium tumefaciens anthranilate synthase variant V48Y, SEQ ID NO:59 (Agrobacterium fabrum, UniProt A9CI26, V48Y)
# METHOD: Anthranilate synthase enzyme assay and kinetic analysis, V48Y mutant
ENDPOINT: IC50 (µM)
# number only, unit µM dropped from output

Entry N[C@@H](Cc1c[nH]c2ccccc12)C(=O)O ; IC50 = 650

---

# TARGET OR SYSTEM: Agrobacterium tumefaciens anthranilate synthase variant S51F, SEQ ID NO:60 (Agrobacterium fabrum, UniProt A9CI26, S51F)
# METHOD: Anthranilate synthase enzyme assay and kinetic analysis, S51F mutant
# Source text: Site directed mutagenesis was used to generate ten single amino acid substitutions six sites. The mutations were introduced into the Agrobacterium tumefaciens AS in pMON34705 using the QuikChange™ Site-Directed Mutagenesis Kit (Stratagene). […] Agrobacterium tumefaciens AS wild type and mutant enzymes were expressed in E. coli as described in Example 1. […] Fractions containing the enzyme were detected by the developed assay and pooled. […]
ENDPOINT: IC50

Entry N[C@@H](Cc1c[nH]c2ccccc12)C(=O)O ; IC50 = > 32 mM

---

# TARGET OR SYSTEM: Agrobacterium tumefaciens anthranilate synthase variant P293A, SEQ ID NO:63 (Agrobacterium fabrum, UniProt A9CI26, P293A)
# METHOD: Anthranilate synthase enzyme assay and kinetic analysis, P293A mutant
ENDPOINT: IC50 (µM)
# number only, unit µM dropped from output

Entry N[C@@H](Cc1c[nH]c2ccccc12)C(=O)O ; IC50 = 14

---

# TARGET OR SYSTEM: Agrobacterium tumefaciens anthranilate synthase variant S50K, SEQ ID NO:69 (Agrobacterium fabrum, UniProt A9CI26, S50K)
# METHOD: Anthranilate synthase enzyme assay and kinetic analysis, S50K mutant
ENDPOINT: pIC50
// scale note: pIC50 = -log10(conc_M); give the bare number

Entry N[C@@H](Cc1c[nH]c2ccccc12)C(=O)O [L-tryptophan] ; pIC50 = 7.00

---

# TARGET OR SYSTEM: Agrobacterium tumefaciens anthranilate synthase (AgroAS), wild type, SEQ ID NO:4 (Agrobacterium fabrum)
# METHOD: Anthranilate synthase enzyme assay and kinetic analysis, wild type
# Type: biochemical
# CONDITION LABEL: read-out: IC50^trp; wild type, Table J (5-MT resistant clones)
ENDPOINT: IC50 (µM)
# number only, unit µM dropped from output

Entry N[C@@H](Cc1c[nH]c2ccccc12)C(=O)O [L-tryptophan] ; IC50 = 5
